Assay: Inhibition of recombinant Leishmania mexicana Trypanothione reductase
Quantity Kind: pIC50
Expect pIC50 as a plain number equal to -log10 of the molar concentration.

Ask: Which pIC50 is listed for O=C(NCc1ccc2ncccc2c1)c1cnn(-c2ncc3c(n2)-c2ccccc2CCC3)c1C1CC1 ?
Result: 4.24

* * *

In this section we review reported IC50 values for a set of compounds.
Target: DNA topoisomerase I (Leishmania donovani (strain BPK282A1))
Sequence (E9BRC0 whole entry): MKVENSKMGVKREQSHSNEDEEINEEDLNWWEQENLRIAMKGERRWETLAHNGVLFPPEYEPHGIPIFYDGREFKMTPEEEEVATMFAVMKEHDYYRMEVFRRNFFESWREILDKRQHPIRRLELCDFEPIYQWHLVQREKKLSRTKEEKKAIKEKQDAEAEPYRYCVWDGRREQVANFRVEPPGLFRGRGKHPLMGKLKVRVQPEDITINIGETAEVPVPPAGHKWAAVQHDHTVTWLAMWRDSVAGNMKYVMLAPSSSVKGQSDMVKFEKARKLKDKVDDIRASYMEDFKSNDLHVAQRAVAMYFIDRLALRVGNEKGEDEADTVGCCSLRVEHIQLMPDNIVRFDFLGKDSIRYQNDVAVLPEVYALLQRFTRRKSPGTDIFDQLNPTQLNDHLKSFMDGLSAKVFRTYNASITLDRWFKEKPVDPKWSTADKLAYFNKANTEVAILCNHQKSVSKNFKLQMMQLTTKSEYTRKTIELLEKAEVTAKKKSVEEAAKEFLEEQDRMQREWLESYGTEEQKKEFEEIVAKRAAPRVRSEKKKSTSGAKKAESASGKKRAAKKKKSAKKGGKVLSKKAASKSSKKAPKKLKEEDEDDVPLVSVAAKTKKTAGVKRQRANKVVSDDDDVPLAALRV
Experiment: Inhibition of Leishmania donovani DNA topoisomerase I
Return type: number; implicit unit µM.

# Compound, Unit Info, IC50
measured = [
    ("CCCCCCCCCCCCCCCC#CC(=O)O", "µM", 5.3),
]

Now for another entry.
Ask: Lab request: please report IC50 under test system DNA topoisomerase I (Leishmania donovani (strain BPK282A1)) for COc1cc2c3c(c1)Oc1c(OC)c(OC)c(OC)c4c1C(Cc1ccc(cc1)Oc1cc(ccc1OC)C[C@H]3N(C)CC2)N(C)CC4 (stereo partly drawn)
Result: 50
